Numbers sourced from the supplement of paper PMC7877785.

Experiment: self-splicing fitness, log relative to wild type (ln ratio); higher = more splicing; Tetrahymena group I intron in knt gene, E. coli kanamycin selection, DiMSum; sequences stand for … in CUCUCU…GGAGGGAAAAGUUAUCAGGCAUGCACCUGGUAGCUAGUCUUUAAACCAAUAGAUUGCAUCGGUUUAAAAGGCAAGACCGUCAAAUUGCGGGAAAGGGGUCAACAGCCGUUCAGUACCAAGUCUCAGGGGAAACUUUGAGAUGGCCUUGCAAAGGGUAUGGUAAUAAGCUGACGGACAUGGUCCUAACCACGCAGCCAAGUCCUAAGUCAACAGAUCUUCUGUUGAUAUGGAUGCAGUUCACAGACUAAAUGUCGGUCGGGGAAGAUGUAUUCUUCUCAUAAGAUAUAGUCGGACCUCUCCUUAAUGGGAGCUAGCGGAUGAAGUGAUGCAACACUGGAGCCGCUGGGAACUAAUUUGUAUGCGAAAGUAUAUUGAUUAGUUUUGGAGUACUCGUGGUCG;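 further: selection with 25 µg/mL kanamycin versus none on LB agar overnight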
Settings: 30 °C
Parameter threshold = -2. Response is True when self-splicing fitness (ln) meets or exceeds it, else False.

Q. Given "GUUCAGCAAUAUUACGCCCG" , state whether its self-splicing fitness (ln) is at least -2.
A. True

Q. Could you tell me if the measured self-splicing fitness (ln) of "CUACAGCAAUAUUACGACGC" reaches -2 or more?
A. False

Q. Check if self-splicing fitness (ln) >= -2 (inclusive). Item: "AAGGAGCAAUAUUACGAUGA"
A. False

Q. Is the recorded value of self-splicing fitness (ln) equal to or greater than -2 for this sequence? "GUAAAGCAAUAUUACGCCGU"
A. True

Q. Item "UACCAGCAAUAUUACGAUGC" with self-splicing fitness (ln) of -2 or above?
A. False

Q. Entry "UGCGAGCAAUAUUACGGGCC" : is its self-splicing fitness (ln) no less than -2?
A. False

Q. Say whether "UCACAGCAAUAUUACGCUAA" shows self-splicing fitness (ln) of -2 or more.
A. False

Q. Is the recorded value of self-splicing fitness (ln) equal to or greater than -2 for this sequence? "UGUCAGCAAUAUUACGGAUC"
A. True

Q. Textbook exercise: given the entry "UCCGAGCAAUAUUACGGCAA" , state whether its self-splicing fitness (ln) is greater than or equal to -2.
A. True

Q. Is self-splicing fitness (ln) for "GCUUAGCAAUAUUACGACUU" at or above -2?
A. True

Q. Please tell me: is the sequence "AGAGAGCAAUAUUACGCGGC" at or over -2 in terms of self-splicing fitness (ln)?
A. False

Q. Tell me whether self-splicing fitness (ln) is at least -2 here: "UGAAAGCAAUAUUACGAGGU"
A. False

Q. // inclusive: self-splicing fitness (ln) at least -2? input: "AAAUAGCAAUAUUACGCACC"
A. True

Q. // inclusive: self-splicing fitness (ln) at least -2? input: "ACUAAGCAAUAUUACGCGUC"
A. False

Q. Reported self-splicing fitness (ln) reaches at least -2 for "CAGGAGCAAUAUUACGCCAU" ?
A. False

Q. Given the entry "CCGAAGCAAUAUUACGCGCG" , answer whether its self-splicing fitness (ln) meets or surpasses -2.
A. True

Q. Determine whether this sequence has self-splicing fitness (ln) no lower than -2: "ACGAAGCAAUAUUACGACAU"
A. True

Q. Identify whether the reported self-splicing fitness (ln) of the following sequence is -2 or greater: "GCAUAGCAAUAUUACGGGUG"
A. False

Q. # check: self-splicing fitness (ln) of "ACGAAGCAAUAUUACGCGAC" is greater than or equal to -2
A. False

Q. Assess whether reported self-splicing fitness (ln) for "UUACAGCAAUAUUACGUUAU" sits at -2 or higher.
A. True

Q. Does "AGUCAGCAAUAUUACGUGGC" have a reported self-splicing fitness (ln) of at least -2?
A. False

Q. Please check the record "AAUCAGCAAUAUUACGGGUA" and state if its self-splicing fitness (ln) is at or above -2.
A. True

Q. Is self-splicing fitness (ln) at least -2? Consider "AGUCAGCAAUAUUACGGAAU"
A. True

Q. Would you say "UGUCAGCAAUAUUACGAAGG" shows self-splicing fitness (ln) at minimum -2?
A. True

Q. Hi, just wondering whether "GCACAGCAAUAUUACGCGUC" shows self-splicing fitness (ln) of -2 or higher.
A. False

Q. Evaluate "UGGUAGCAAUAUUACGUCGU" : self-splicing fitness (ln) at minimum -2?
A. False

Q. # check: self-splicing fitness (ln) of "GUCAAGCAAUAUUACGUUGU" is greater than or equal to -2
A. False

Q. Hi team, for "CUGCAGCAAUAUUACGGUUU" , is the recorded self-splicing fitness (ln) at or above -2?
A. False

Q. API: above_or_equal(metric=self-splicing fitness (ln), cutoff=-2) for item "ACUCAGCAAUAUUACGGAAC"
A. True

Q. Hello, I need to know if "ACGAAGCAAUAUUACGAGGA" has measured self-splicing fitness (ln) not below -2. Thanks!
A. False

Q. Tell me whether self-splicing fitness (ln) is at least -2 here: "UUUUAGCAAUAUUACGGAUA"
A. True

Q. Quick check, self-splicing fitness (ln) >= -2? "CGUUAGCAAUAUUACGUCUG"
A. True

Q. Could you verify whether the entry "CAGAAGCAAUAUUACGCAAU" shows self-splicing fitness (ln) of no less than -2?
A. False
